tested on: SARS-CoV-2-GHB-03021/2020; test: microbe, parasite or virus in culture; assay type: cell-based; conditions: Severe acute respiratory syndrome coronavirus 2, Vero C1008, 96 h; read-out: VeroE6 + CP (EC50)
pEC50: −log10 of the molar value.
metric name: pEC50

- molecule: "CC(C)C(=O)OCC(=O)[C@H](C[C@@H]1CCNC1=O)NC(=O)[C@@H]1[C@H]2CCC[C@H]2CN1C(=O)c1cc2c(Cl)cc(Cl)cc2[nH]1"
  study system: "SARS-CoV-2-GHB-03021/2020"
  obs value: "> 6.00"
- molecule: "O=C1NCC[C@H]1C[C@H](NC(=O)[C@@H]1[C@H]2CCC[C@H]2CN1C(=O)c1cc2c(Cl)cc(F)c(Cl)c2[nH]1)C(=O)CO"
  study system: "SARS-CoV-2-GHB-03021/2020"
  obs value: "> 6.00"
- molecule: "COc1cccc2[nH]c(C(=O)N3C[C@]4(C[C@H]3C(=O)N[C@@H](C[C@@H]3CCCNC3=O)C(=O)CO)CC4(F)F)cc12"
  study system: "SARS-CoV-2-GHB-03021/2020"
  obs value: "5.00 to 6.00"
- molecule: "O=C1NCC[C@H]1C[C@H](NC(=O)[C@@H]1[C@@H]2[C@H](CN1C(=O)c1cc3c(Cl)cc(Cl)cc3[nH]1)[C@@H]1C=C[C@H]2C1)C(=O)CO"
  study system: "SARS-CoV-2-GHB-03021/2020"
  obs value: "> 6.00"
- molecule: "O=C1NCC[C@H]1C[C@H](NC(=O)[C@@H]1[C@H]2CCC[C@H]2CN1C(=O)c1cc2c(Cl)cc(F)cc2[nH]1)C(=O)CO"
  study system: "SARS-CoV-2-GHB-03021/2020"
  obs value: "> 6.00"
- molecule: "O=C1NCC[C@H]1C[C@H](NC(=O)[C@@H]1[C@H]2CCC[C@H]2CN1C(=O)c1cc2c(Cl)ccc(Oc3ccccc3)c2[nH]1)C(=O)CO"
  study system: "SARS-CoV-2-GHB-03021/2020"
  obs value: "5.00 to 6.00"
- molecule: "CC(C)[C@@H]1C[C@@H](C(=O)NC(C[C@@H]2CCNC2=O)C(=O)C(=O)NCc2ccccc2)N(C(=O)c2cc3ccccc3[nH]2)C1 (stereo partly drawn)"
  study system: "SARS-CoV-2-GHB-03021/2020"
  obs value: "5.00 to 6.00"
- molecule: "O=C(NCc1ccccc1)C(=O)[C@H](Cc1cccnc1)NC(=O)[C@@H]1CC2(CC2)CN1C(=O)c1cc2ccccc2[nH]1"
  study system: "SARS-CoV-2-GHB-03021/2020"
  obs value: "< 4.00"
- molecule: "N#C[C@H](C[C@@H]1CCNC1=O)NC(=O)[C@@H]1[C@H]2CCC[C@H]2CN1C(=O)c1cc2c(Cl)ccc(Cl)c2[nH]1"
  study system: "SARS-CoV-2-GHB-03021/2020"
  obs value: "> 6.00"
- molecule: "O=C1NCC[C@H]1C[C@H](NC(=O)[C@@H]1[C@H]2CCC[C@H]2CN1C(=O)c1cc2c(Cl)ccc(C(F)(F)F)c2[nH]1)C(=O)CO"
  study system: "SARS-CoV-2-GHB-03021/2020"
  obs value: "> 6.00"
- molecule: "O=C(NCCCC(F)(F)F)C(=O)[C@H](C[C@@H]1CCNC1=O)NC(=O)[C@@H]1[C@H]2CCC[C@H]2CN1C(=O)c1cc2c(Cl)cc(Cl)cc2[nH]1"
  study system: "SARS-CoV-2-GHB-03021/2020"
  obs value: "5.00 to 6.00"
- molecule: "COc1cccc2[nH]c(C(=O)N3C[C@@H]4CCC[C@@H]4[C@H]3C(=O)N[C@@H](C[C@@H]3CCNC3=O)C(=O)C(=O)NCCO)cc12"
  study system: "SARS-CoV-2-GHB-03021/2020"
  obs value: "4.00 to 5.00"
